Each recorded value in this set is attributed to patent US20250320312A1.

# subject of test: Peptide 1: Biotin-…-[Tyr(PC)]-acid
# Sequence (peptide, as listed by the source): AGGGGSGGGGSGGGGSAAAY
# protocol text: scFv ELISA
quantity kind: OD450 (OD450)
Give the quantity in OD450, number only.

Answered cases to consult:
binder	quantity kind	unit abbreviation	observed result
PcOxP_DB04_F01 (scFv, V domains shown, scFv in periplasmic extract) VH: EVQLLESGGGLVQPGGSLRLSCAASGFTFSPFYMEWVRQAPGKGLEWVAASRNKANDYTTEYADSVKGRFTISRDNSKNTLYLQMNSLRAEDTAVYYCARDYYGSSYWYFDVWGQGTLVTVSS VL: DIVMTQSPDSLAVSLGERATINCTASESLYSSKHKVHYLAWYQQKPGQPPKLLIYGASNRYIGVPDRFSGSGSGTDFTLTISSLQAEDVAVYYCAQFYEYPLTFGGGTKVEIK	OD450	OD450	0.56
PcOxP_DB03_G01 (scFv, V domains shown, scFv in periplasmic extract) VH: EVQLLESGGGLVQPGGSLRLSCAASGFTFSDGYMEWVRQAPGKGLEWVAASRNKANFYTTEYADSVKGRFTISRDNSKNTLYLQMNSLRAEDTAVYYCARDHYGSSYWYFDVWGQGTLVTVSS VL: DIVMTQSPDSLAVSLGERATINCTASESLYSSKHKVHYLAWYQQKPGQPPKLLIYGASNRYIGVPDRFSGSGSGTDFTLTISSLQAEDVAVYYCAQFYNYPLTFGGGTKVEIK	OD450	OD450	0.66
PcOxP_DB01_A12 (scFv, V domains shown, scFv in periplasmic extract) VH: EVQLLESGGGLVQPGGSLRLSCAASGFGFSDFYMEWVRQAPGKGLEWVAASRNKWNDYTTEYADSVKGRFTISRDNSKNTLYLQMNSLRAEDTAVYYCARDYYGSSYWYYDVWGQGTLVTVSS VL: DIQMTQSPSSLSASVGDRVTITCTASESLYSSKHKVHYLAWYQQKPGKAPKLLIYGASNREIGVPSRFSGSGSGTDFTLTISSLQPEDFATYYCQQFYSYPLTFGGGTKVEIK	OD450	OD450	0.29
PcOxP_DB03_B11 (scFv, V domains shown, scFv in periplasmic extract) VH: EVQLLESGGGLVQPGGSLRLSCAASGFTFSDFYVEWVRQAPGKGLEWVAASRNKANTYTTEYADSVKGRFTISRDNSKNTLYLQMNSLRAEDTAVYYCARDYYGSSYWYFDVWGQGTLVTVSS VL: DIVMTQSPDSLAVSLGERATINCTASESLYSSKHKVHYLAWYQQKPGQPPKLLIYGAQNRYIGVPDRFSGSGSGTDFTLTISSLQAEDVAVYYCGQFYSYPLTFGGGTKVEIK	OD450	OD450	0.5
PcOxP_DB04_H07 (scFv, V domains shown, scFv in periplasmic extract) VH: EVQLLESGGGLVQPGGSLRLSCAASGFTFEDFYMEWVRQAPGKGLEWVAASRNKANDYTTEYADSVKGRFTISRDNSKNTLYLQMNSLRAEDTAVYYCARDYYGSSYWYFDVWGQGTLVTVSS VL: DIQMTQSPSSLSASVGDRVTITCTASESLYSSKHKVHYLAWYQQKPGKAPKLLIYGASNRVIGVPSRFSGSGSGTDFTLTISSLQPEDFATYYCAQFYSYPLTFGGGTKVEIK	OD450	OD450	0.58

Exercise: Name the reported OD450 value associated with the binder PcOxP_DB01_G01 (scFv, V domains shown, scFv in periplasmic extract) VH: EVQLLESGGGLVQPGGSLRLSCAASGFTGSDFYMEWVRQAPGKGLEWVAASRNKGNSYTTEYADSVKGRFTISRDNSKNTLYLQMNSLRAEDTAVYYCARDYYGSSYWYFDVWGQGTLVTVSS VL: DIQMTQSPSSLSASVGDRVTITCTASESLYGSKHKVHYLAWYQQKPGKAPKLLIYGASNRYSGVPSRFSGSGSGTDFTLTISSLQPEDFATYYCAQFYSYPLTFGGGTKVEIK
Solution: 0.58

Exercise: Could you tell me which OD450 is on file for PcOxP_DB03_G12 (scFv, V domains shown, scFv in periplasmic extract) VH: EVQLLESGGGLVQPGGSLRLSCAASGFTFSDYYMEWVRQAPGKGLEWVAASRNKYNDYTTEYADSVKGRFTISRDNSKNTLYLQMNSLRAEDTAVYYCARDYYGSSYWYFDVWGQGTLVTVSS VL: DIVMTQSPDSLAVSLGERATINCKSSESVYSSKHKKHYLAWYQQKPGQPPKLLIYGASNRYIGVPDRFSGSGSGTDFTLTISSLQAEDVAVYYCAQFYSYPLTFGGGTKVEIK ?
Solution: 1.57

Exercise: GET /values?readout=OD450&item= PcOxP_DB02_D10 (scFv, V domains shown, scFv in periplasmic extract) VH: EVQLLESGGGLVQPGGSLRLSCAASGFTFSDQYMEWVRQAPGKGLEWVAASRNKANDYTTEYADSVKGRFTISRDNSKNTLYLQMNSLRAEDTAVYYCARDYYGSSYWYFDVWGQGTLVTVSS VL: DIQMTQSPSSLSASVGDRVTITCTATESLYSSKHKVHYLAWYQQKPGKAPKLLIYGASNRYTGVPSRFSGSGSGTDFTLTISSLQPEDFATYYCAQFYSYPLTFGGGTKVEIK
Solution: 0.69

Exercise: Which value of OD450 has been reported for PcOxP_DB03_D01 (scFv, V domains shown, scFv in periplasmic extract) VH: EVQLLESGGGLVQPGGSLRLSCAASGFTFSDEYMEWVRQAPGKGLEWVAASRNKANDYTTEYADSVKGRFTISRDNSKNTLYLQMNSLRAEDTAVYYCARDYYGSSYWYFDVWGQGTLVTVSS VL: DIQMTQSPSSLSASVGDRVTITCTASESLYSSKHKVHYLAWYQQKPGKAPKLLIYGASNRYIGVPSRFSGSGSGTDFTLTISSLQPEDFATYYCAQFYYYPLTFGGGTKVEIK in the records?
Solution: 2.51

Exercise: Given the entry PcOxP_DB03_F03 (scFv, V domains shown, scFv in periplasmic extract) VH: EVQLLESGGGLVQPGGSLRLSCAASGFTFSDQYMEWVRQAPGKGLEWVAASRNKNNDYTTEYADSVKGRFTISRDNSKNTLYLQMNSLRAEDTAVYYCARDYYGASYWYFDVWGQGTLVTVSS VL: DIVMTQSPDSLAVSLGERATINCTASQSVYSSKHKKHYLAWYQQKPGQPPKLLIYGANNRYIGVPDRFSGSGSGTDFTLTISSLQAEDVAVYYCGQFYSYPLTFGGGTKVEIK , report its measured OD450.
Solution: 1.13
